- Tested Target: T1, serum purified human Complement Factor D (human, UniProt P00746 26-253)
- T1 construct: Serum purified protein flowed over the captured antibodies; also called CFD; human CFD
- T1 sequence (P00746 26-253): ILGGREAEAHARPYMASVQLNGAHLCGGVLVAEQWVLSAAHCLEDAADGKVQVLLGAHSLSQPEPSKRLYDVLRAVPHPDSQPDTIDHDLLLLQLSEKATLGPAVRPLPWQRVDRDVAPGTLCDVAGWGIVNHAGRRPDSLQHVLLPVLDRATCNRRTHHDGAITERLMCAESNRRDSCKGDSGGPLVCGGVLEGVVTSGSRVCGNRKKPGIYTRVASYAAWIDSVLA
- Test Method Notes: SPR Biacore, antibody on protein A chip, single cycle kinetics, 37 C;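 further: antibodies captured on the protein A surface to roughly 70 RU in HBS-EP+ buffer, with rate and affinity constants fitted using BIAevaluation software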
Measured Property: kon (M⁻¹ s⁻¹)
The answer is to be given in M⁻¹ s⁻¹; state only the numeric part.

The cases that follow already have their kon on record.
{"Binder": "28V31S54V59D / 101V (antibody, V domains shown, KCD119 TAF variant; full antibody captured on protein A) VH: EVQLVESGGGLVQPGGSLRLSCAASGYVFTSYYMNWVRQAPGKGLEWIGDINPVTGDTDYNADFKRRFTFSLDTSKSTAYLQMNSLRAEDTAVYYCTREGPSFAYWGQGTLVTVSS VL: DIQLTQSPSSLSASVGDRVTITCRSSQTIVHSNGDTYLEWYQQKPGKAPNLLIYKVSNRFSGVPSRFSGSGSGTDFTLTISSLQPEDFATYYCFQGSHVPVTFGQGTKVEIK", "Measured Property": "kon", "Reported Measurement": "1.66e+07"}
{"Binder": "31S34I54I59D84S / 54R101V (antibody, V domains shown, KCD119 TAF variant; also called 3I534I54I59D84S / 54R101V) VH: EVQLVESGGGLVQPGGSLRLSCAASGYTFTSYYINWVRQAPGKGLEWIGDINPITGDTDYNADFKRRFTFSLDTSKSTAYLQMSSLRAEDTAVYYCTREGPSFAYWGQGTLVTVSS VL: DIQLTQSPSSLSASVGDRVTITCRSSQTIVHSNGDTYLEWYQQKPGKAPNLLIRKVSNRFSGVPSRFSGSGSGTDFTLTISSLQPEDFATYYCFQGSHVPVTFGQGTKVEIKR", "Measured Property": "kon", "Reported Measurement": "3.5e+07"}
{"Binder": "31S54I59D84S / 32W60W101V (antibody, V domains shown, Label printed 31S54I59D845, read as 84S; full antibody captured on protein A; also called 31S54I59D845 / 32W60W101V) VH: EVQLVESGGGLVQPGGSLRLSCAASGYTFTSYYMNWVRQAPGKGLEWIGDINPITGDTDYNADFKRRFTFSLDTSKSTAYLQMSSLRAEDTAVYYCTREGPSFAYWGQGTLVTVSS VL: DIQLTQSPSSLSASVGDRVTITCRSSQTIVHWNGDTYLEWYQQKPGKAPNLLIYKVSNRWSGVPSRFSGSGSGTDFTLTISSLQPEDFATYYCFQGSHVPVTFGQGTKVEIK", "Measured Property": "kon", "Reported Measurement": "8.9e+06"}

In: Give recorded kon. 28I31S54V59D / 101V (antibody, V domains shown, KCD119 TAF variant; full antibody captured on protein A) VH: EVQLVESGGGLVQPGGSLRLSCAASGYIFTSYYMNWVRQAPGKGLEWIGDINPVTGDTDYNADFKRRFTFSLDTSKSTAYLQMNSLRAEDTAVYYCTREGPSFAYWGQGTLVTVSS VL: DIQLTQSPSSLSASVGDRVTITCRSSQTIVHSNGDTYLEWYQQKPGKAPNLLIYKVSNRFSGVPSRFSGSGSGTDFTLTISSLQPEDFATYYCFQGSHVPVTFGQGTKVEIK
Out: 2e+07

In: Tell me measured kon for 31S34I54I59D84S / 54G101V (antibody, V domains shown, KCD119 TAF variant; full antibody captured on protein A; also called 31S34I54I59D845 / 54G101V; 3I534I54I59D84S / 54G101V) VH: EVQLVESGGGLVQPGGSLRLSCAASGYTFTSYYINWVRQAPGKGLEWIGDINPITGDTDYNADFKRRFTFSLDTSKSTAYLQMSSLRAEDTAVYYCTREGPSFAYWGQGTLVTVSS VL: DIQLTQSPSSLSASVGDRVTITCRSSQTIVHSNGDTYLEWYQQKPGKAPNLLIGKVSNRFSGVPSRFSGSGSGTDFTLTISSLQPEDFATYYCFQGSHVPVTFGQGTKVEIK please.
Out: 1.21e+07
